# Target under test: C-Kit (Homo sapiens)
# Sequence (P10721 26-976): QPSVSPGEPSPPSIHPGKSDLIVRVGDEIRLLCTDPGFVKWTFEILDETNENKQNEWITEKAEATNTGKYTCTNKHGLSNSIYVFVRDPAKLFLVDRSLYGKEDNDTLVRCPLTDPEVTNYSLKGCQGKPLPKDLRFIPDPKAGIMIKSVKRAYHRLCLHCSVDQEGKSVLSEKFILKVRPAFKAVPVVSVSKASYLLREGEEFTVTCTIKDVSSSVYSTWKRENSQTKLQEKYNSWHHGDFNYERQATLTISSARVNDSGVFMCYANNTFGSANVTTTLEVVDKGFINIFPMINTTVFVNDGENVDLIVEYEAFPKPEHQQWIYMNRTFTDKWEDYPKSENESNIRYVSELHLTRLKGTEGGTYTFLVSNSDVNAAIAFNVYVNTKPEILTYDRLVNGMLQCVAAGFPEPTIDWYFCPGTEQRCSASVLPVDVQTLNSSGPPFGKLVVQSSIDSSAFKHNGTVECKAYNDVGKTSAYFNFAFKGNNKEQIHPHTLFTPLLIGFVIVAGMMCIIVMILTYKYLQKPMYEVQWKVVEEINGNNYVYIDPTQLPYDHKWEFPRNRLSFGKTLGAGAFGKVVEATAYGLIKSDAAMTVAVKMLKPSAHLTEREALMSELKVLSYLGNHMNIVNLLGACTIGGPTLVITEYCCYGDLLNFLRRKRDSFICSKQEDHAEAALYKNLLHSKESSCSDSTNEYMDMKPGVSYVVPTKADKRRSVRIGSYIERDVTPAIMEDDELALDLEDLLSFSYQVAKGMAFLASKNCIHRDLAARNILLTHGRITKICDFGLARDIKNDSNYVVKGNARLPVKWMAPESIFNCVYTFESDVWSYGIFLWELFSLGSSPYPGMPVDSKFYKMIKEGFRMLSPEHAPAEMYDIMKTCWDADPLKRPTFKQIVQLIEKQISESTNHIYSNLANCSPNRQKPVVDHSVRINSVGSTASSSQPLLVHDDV
Measured parameter: pIC50
Reminder that pIC50 means the negative base-10 logarithm of the concentration expressed in mol/L.

Name the recorded pIC50 of Cc1[nH]c(/C=C2\C(=O)Nc3ccc(F)cc32)c(C)c1C(=O)N[C@H]1CCN(C(=O)N(C)C)C1 [Vorolanib] , assay system C-Kit (Homo sapiens).
9.85
